# Assayed Target: P2X7 (Homo sapiens (Human))
# Assay Explanation: Ca2+ flux (FLIPR) in 1321N1 cells expressing recombinant human P2X7 channel;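 also: Calcium-4 dye-loaded cells exposed to compound for 30 min before agonist addition, fluorescence change read 180 s after agonist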
# Format: cell-based
# Assay Setup: 250 μM BzATP
Measurement Kind: IC50 (nM)

Below are worked cases with known answers.
stdin: Could you tell me which IC50 is on file for Cc1cccc(-n2nnc3c2CCN(C(=O)c2cccc(C(F)(F)F)c2Cl)[C@H]3C)n1 (single isomer, unassigned) ?
stdout: 7.2

stdin: Could you tell me which IC50 is on file for CCOC(=O)C1c2ncn(-c3cnccn3)c2CCN1C(=O)c1cccc(C(F)(F)F)c1Cl (centres unmarked) ?
stdout: 13.8

stdin: Could you tell me which IC50 is on file for `O=C(c1cccc(C(F)(F)F)c1Cl)N1CCc2c(-c3cccnc3)n[nH]c2C1` ?
stdout: 2.5

stdin: Could you tell me which IC50 is on file for Cc1c(C(=O)N2Cc3nnn(-c4cc[nH]n4)c3CC2C)cccc1C(F)(F)F (centres unmarked) ?
stdout: 16.5

stdin: Could you tell me which IC50 is on file for `Cn1ccc(-n2nnc3c2CCN(C(=O)c2cccc(C(F)(F)F)c2Cl)C3)n1` ?
stdout: 22.1

(a) CC1c2nnn(-c3ncc(F)cn3)c2CCN1C(=O)c1cccc(Cl)c1Cl (centres unmarked)
(b) Cc1nc2c(n1-c1ccccc1)CCN(C(=O)c1cccc(C(F)(F)F)c1Cl)C2
(c) Cc1c(C(=O)N2CCc3c(ncn3-c3ccc(F)cn3)C2)cccc1C(F)(F)F
stdin: Arrange the 3 molecules from largest to smallest IC50. Answer format: the labels, ordered as requested.
stdout: c, b, a
(c: 157 nM, b: 99.3 nM, a: 3.3 nM)

* * *

# Assayed Target: P2X7 (Homo sapiens (Human), UniProt Q99572)
# Sequence (Q99572 whole entry): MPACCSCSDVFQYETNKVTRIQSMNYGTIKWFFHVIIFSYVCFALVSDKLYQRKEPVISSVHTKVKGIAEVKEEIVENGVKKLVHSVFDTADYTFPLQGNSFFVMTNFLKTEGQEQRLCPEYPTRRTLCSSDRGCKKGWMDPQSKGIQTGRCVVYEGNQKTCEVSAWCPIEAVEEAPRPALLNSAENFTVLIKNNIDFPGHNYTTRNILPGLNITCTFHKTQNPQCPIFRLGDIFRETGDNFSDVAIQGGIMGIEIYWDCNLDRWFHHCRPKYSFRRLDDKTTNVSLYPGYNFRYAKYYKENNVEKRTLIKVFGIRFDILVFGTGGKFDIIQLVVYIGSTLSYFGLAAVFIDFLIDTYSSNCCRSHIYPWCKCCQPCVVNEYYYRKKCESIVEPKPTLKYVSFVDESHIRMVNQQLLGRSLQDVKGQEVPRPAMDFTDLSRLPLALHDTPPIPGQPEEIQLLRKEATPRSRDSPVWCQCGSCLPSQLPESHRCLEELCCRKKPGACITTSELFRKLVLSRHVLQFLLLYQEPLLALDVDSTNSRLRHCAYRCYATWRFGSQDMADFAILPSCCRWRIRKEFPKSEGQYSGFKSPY
# Assay Explanation: P2X7 antagonism in human PBMCs (LPS + Bz-ATP induced IL-1β release, ELISA);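 also: PBMCs from donor human blood, with a further 1.5 h incubation of the cells in the assay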
# Assay type: cell-based
# Assay Setup: compound 10 μM, LPS 30 ng/ml, Bz-ATP 0.5 mM
Measurement Kind: PBMC 10 μM (% control)

(P) O=C(c1cccc(Cl)c1Cl)N1CCc2c(n[nH]c2-c2cncnc2)C1
(Q) Cc1ccc(-n2nnc3c2CCN(C(=O)c2cccc(C(F)(F)F)c2Cl)[C@H]3C)nc1 (single isomer, unassigned)
(R) CC1c2nnn(-c3ncc(F)cn3)c2CCN1C(=O)c1cccc(C(F)(F)F)c1F (centres unmarked)
stdin: Kindly provide a descending ordering of the above molecules based on their PBMC 10 μM (% control). Answer format: the labels, ordered as requested.
stdout: Q, P, R
(Q: 86.9 % control, P: 33.8 % control, R: 4.5 % control)

(P) Cc1c(C(=O)N2CCc3c(nnn3-c3ncccn3)[C@H]2C)cccc1C(F)(F)F (single isomer, unassigned)
(Q) Cc1ccnc(-n2nnc3c2CCN(C(=O)c2cccc(C(F)(F)F)c2Cl)C3C)c1 (centres unmarked)
stdin: Which record shows the lower PBMC 10 μM (% control): the first, P , or the second, Q ? Label of pick, please.
stdout: P
(P: −0.7 % control, Q: 1.5 % control)

(1) CCc1nc2c(n1-c1ccccc1)CCN(C(=O)c1cccc(C(F)(F)F)c1Cl)C2C (centres unmarked)
(2) CCOc1cccnc1-n1nnc2c1CCN(C(=O)c1cccc(C(F)(F)F)c1Cl)[C@H]2C (single isomer, unassigned)
stdin: I need your help: which of the pair 1 , 2 has higher PBMC 10 μM (% control)? Label of pick, please.
stdout: 2
(2: 4.8 % control, 1: −0.7 % control)

(1) C[C@H]1c2nnn(-c3ncc(F)cn3)c2CCN1C(=O)c1cccc(C(F)(F)F)c1F (single isomer, unassigned)
(2) O=C(c1cccc(C(F)(F)F)c1Cl)N1CCc2c(nnn2-c2ncccn2)C1
(3) Cc1cccc(-n2nnc3c2CCN(C(=O)c2cccc(Cl)c2Cl)C3C)n1 (centres unmarked)
stdin: Arrange the 3 molecules from largest to smallest PBMC 10 μM (% control). Answer format: the labels, ordered as requested.
stdout: 2, 3, 1
(2: 5.8 % control, 3: −0.1 % control, 1: −4.7 % control)
